These measurements were taken from PubChem BioAssay AID2060500.

Tested on: 596521-263-R-J1-PDC complex spheroids, viability % of control
Test: Anticancer human tumor 596521-263-R-J1-PDC patient-derived soft tissue sarcoma cell line growth inhibition [GQUAD]; active means viability on the fitted dose curve at most 10% of control; inactive means the rest
Conditions: second compound 0.1 µM; first compound 1 µM
# valid calls are true = active, false = inactive; nothing else

Field: example entries. Status: answers known.
COc1cccc2c1C(=O)c1c(O)c3c(c(O)c1C2=O)CC(O)(C(=O)CO)CC3OC1CC(N)C(O)C(C)O1 (stereo unspecified) + Cc1[nH]c2ccc(F)cc2c1-c1nc2c3cccnc3c3ncccc3c2[nH]1; false
Nc1ccn(C2OC(CO)C(O)C2(F)F)c(=O)n1 (stereo unspecified) + Cc1cnc(CNC(=O)c2c(=O)c3ccc(N4CCCN(C)CC4)nc3n3c2sc2ccccc23)cn1; false
Cc1cccc(N(C)C(=O)C2C(O)CCN2c2nc(C)cc(C(F)(F)F)c2C#N)c1 (stereo unspecified) + Cc1[nH]c2ccc(F)cc2c1-c1nc2c3cccnc3c3ncccc3c2[nH]1; false

// next entry
IN: // param item: C=CC(=O)N1CCN(c2nc(=O)n(-c3c(C)ccnc3C(C)C)c3nc(-c4c(O)cccc4F)c(F)cc23)C(C)C1 (stereo unspecified) + Cc1cnc(CNC(=O)c2c(=O)c3ccc(N4CCCN(C)CC4)nc3n3c2sc2ccccc23)cn1 ; yields the recorded call
OUT: false

---

Test system: 596521-263-R-J1-PDC complex spheroids, viability % of control
Test: Anticancer human tumor 596521-263-R-J1-PDC cell line growth inhibition [GQUAD];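 further: spheroids exposed to drugs for 7 days before viability reading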;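 on viability, T/C: 100% = DMSO vehicle control viability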
Details: second compound 0.1 µM; first compound 0.1 µM; stronger effect = lower value
Consider the following molecules; for each one, report its viability, T/C.
One number for each entry, in %.

Before answering, review these 2 worked examples.
O=C(c1cc(Cc2n[nH]c(=O)c3ccccc23)ccc1F)N1CCN(C(=O)C2CC2)CC1 + CN(C)c1ccc(Nc2c3ccc(NC(=O)CCN4CCCC4)cc3nc3cc(NC(=O)CCN4CCCC4)ccc23)cc1; 89.3
COc1ncnc(C2CC2)c1-c1ncc2cnn(Cc3ccc(-c4nc(C(F)(F)F)cn4C(C)C)cc3)c2n1 + CN(C)c1ccc(Nc2c3ccc(NC(=O)CCN4CCCC4)cc3nc3cc(NC(=O)CCN4CCCC4)ccc23)cc1; 94.7

IN: Endpoint output: viability, T/C of COc1ccc([C@@H](O)c2cc(-c3ncnc4cc(N5CCOCC5)ccc34)c(F)cc2Cl)nn1 + Cc1[nH]c2ccc(F)cc2c1-c1nc2c3cccnc3c3ncccc3c2[nH]1 . Value?
OUT: 89.1

---

System: 596521-263-R-J1-PDC complex spheroids, viability % of control
Experiment: Anticancer human tumor 596521-263-R-J1-PDC cell line growth inhibition [GQUAD];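 further: spheroids exposed to drugs for 7 days before viability reading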
Details: curve of first compound; second compound 0.316 µM
Consider the following compounds; for each one, report its IC50.

Before answering, review these 2 worked examples.
Cn1ncnc1[C@H]1c2n[nH]c(=O)c3cc(F)cc(c23)N[C@@H]1c1ccc(F)cc1 + CN(C)c1ccc(Nc2c3ccc(NC(=O)CCN4CCCC4)cc3nc3cc(NC(=O)CCN4CCCC4)ccc23)cc1; > 316 nM
Cn1ncnc1[C@H]1c2n[nH]c(=O)c3cc(F)cc(c23)N[C@@H]1c1ccc(F)cc1 + Cc1cnc(CNC(=O)c2c(=O)c3ccc(N4CCCN(C)CC4)nc3n3c2sc2ccccc23)cn1; > 316 nM

Dear reader, for each entry below, please note its IC50.
1. CC1COCCN1c1cc(C2(O)CC3CCC(C2)O3)c2cnn(-c3ccn[nH]3)c2n1 (stereo unspecified) + Cc1cnc(CNC(=O)c2c(=O)c3ccc(N4CCCN(C)CC4)nc3n3c2sc2ccccc23)cn1
2. CCc1c2c(nc3ccc(O)cc13)-c1cc3c(c(=O)n1C2)COC(=O)[C@]3(O)CC + Cc1[nH]c2ccc(F)cc2c1-c1nc2c3cccnc3c3ncccc3c2[nH]1
3. CC[C@@]1(O)C(=O)OCc2c1cc1n(c2=O)Cc2cc3c(CN(C)C)c(O)ccc3nc2-1 + CN(C)c1ccc(Nc2c3ccc(NC(=O)CCN4CCCC4)cc3nc3cc(NC(=O)CCN4CCCC4)ccc23)cc1
4. Nc1ccn(C2OC(CO)C(O)C2(F)F)c(=O)n1 (stereo unspecified) + Cc1[nH]c2ccc(F)cc2c1-c1nc2c3cccnc3c3ncccc3c2[nH]1
5. COc1cc(C2c3cc4c(cc3C(OC3OC5COC(C)OC5C(O)C3O)C3COC(=O)C23)OCO4)cc(OC)c1O (stereo unspecified) + CN(C)c1ccc(Nc2c3ccc(NC(=O)CCN4CCCC4)cc3nc3cc(NC(=O)CCN4CCCC4)ccc23)cc1
6. CC[C@@]1(O)C(=O)OCc2c1cc1n(c2=O)Cc2cc3c(CN(C)C)c(O)ccc3nc2-1 + Cc1[nH]c2ccc(F)cc2c1-c1nc2c3cccnc3c3ncccc3c2[nH]1
7. C=CC(=O)N1CCN(c2nc(=O)n(-c3c(C)ccnc3C(C)C)c3nc(-c4c(O)cccc4F)c(F)cc23)C(C)C1 (stereo unspecified) + Cc1cnc(CNC(=O)c2c(=O)c3ccc(N4CCCN(C)CC4)nc3n3c2sc2ccccc23)cn1
8. Nc1ccn(C2OC(CO)C(O)C2(F)F)c(=O)n1 (stereo unspecified) + CN(C)c1ccc(Nc2c3ccc(NC(=O)CCN4CCCC4)cc3nc3cc(NC(=O)CCN4CCCC4)ccc23)cc1

OUT:
1. 158 nM
2. 5.32 nM
3. > 316 nM
4. < 31.6 nM
5. > 10000 nM
6. 291 nM
7. > 10000 nM
8. 121 nM

IN: Endpoint output: IC50 of Cc1cccc(N(C)C(=O)C2C(O)CCN2c2nc(C)cc(C(F)(F)F)c2C#N)c1 (stereo unspecified) + Cc1[nH]c2ccc(F)cc2c1-c1nc2c3cccnc3c3ncccc3c2[nH]1 . Value?
OUT: > 10000 nM
